Values were extracted from patent US20240327502A1.

# Target entity: T1, Processed stabilized hMPV PreF trimer (115BV) (human metapneumovirus, strain B2)
# T1 construct: also called Processed hMPV PreF trimer; processed PreF
# Assay info: BLI, ratio to unprocessed PreF trimer
Give measured processed/unprocessed PreF trimer binding ratio for each item. Keep answers brief.
Output: the number by itself.

IN: Which processed/unprocessed PreF trimer binding ratio value belongs to M4B11 (antibody, V domains shown, IgG) VH: QVQLVQSGTEVQTPGASVKVSCKTSGYIFTGYFMHWVRQAPGQGFEWMGWVNPYSGATTYAQKFQGRVTMTRDTSISTVYMELSRLTSDDTAIYYCAKDTSNSGPDLLEHWGQGTLVIVSS VL: EIVLTQSPATLSLSPGERATLSCRASQSISNFLVWYQRKPGQAPRLLIFDVSKRATGIPTRFSGSGSGTDFTLTISSLEPEDFAVYYCQQRSNWPPGYTFGQGTKLEIK ?
OUT: 0.18

IN: Which processed/unprocessed PreF trimer binding ratio value belongs to M4C04 (antibody, V domains shown, IgG) VH: RVTLRESGPALLKPTQTLTLTCTFSGFSLNTYGMSVNWIRQPPGKALEWLSRIDWDGDKYFNTSLKTRLTISKDTSKNQVVLTMTNMEPVDTATYYCAQSVIVPAQSFVSWFDPWGPGTLVTVSS VL: EIVMTQSPATLSVSPGERATLSCRASQSVRSNLAWYQQKPGQAPRLLIYGASSRATGIPARFSGSGSGTEFTLTISSLQSEDLAIYYCQQYNNWPPGAFGQGTKVEIK ?
OUT: 0.89

IN: Which processed/unprocessed PreF trimer binding ratio value belongs to M3E04 (antibody, V domains shown, IgG) VH: EVQLVESGGGLVKPGGSLRLSCAGSGFTFSSYSMNWVRQAPGKGLEWVSSISASSSYIYYADSLKGRFTISRDNAKNSLYLQMNSLRAEDTAVYYCARANYGSGNYYNPKWFDPWGQGTLVTVSS VL: QSVLTQPPSVSGAPGQRVTISCTGSSSNIGAGYDVHWYQQFPGTAPKVLIYGNNNRPSGVPDRFSGSKSGTSASLAISGLQAEDEADYYCQSYDSSLSGSIFGGGTKLTVL ?
OUT: 0.13
